I'd appreciate it if you could supply refractive index values for the items below.
Experiment: refractive index (Na D-line) (dimensionless)
Details: 303.15 K; 101.33 kPa; Liquid; Standard Abbe refractometry
One number for each entry.

MOLECULE	refractive index
CCCC[n+]1cccc(C)c1.F[B-](F)(F)F [1-butyl-3-methylpyridinium tetrafluoroborate]	1.44976
CO	1.32433
CCCC[n+]1ccccc1.F[B-](F)(F)F [1-butylpyridinium tetrafluoroborate]	1.44454

List reported refractive index for each of these molecules:
1. CCCC[n+]1ccc(C)cc1.F[B-](F)(F)F [1-butyl-4-methylpyridinium tetrafluoroborate]
2. CCO

1.45114
1.35702
